tested on: HS 578T breast; assay: NCI tumour cell line growth inhibition, 48 h

>  <compound>
Cc1ccc(C(=O)c2oc3ccc4c(C)cc(=O)oc4c3c2C)cc1

>  <system>
HS 578T breast

>  <GI50>
19.4 µM

$$$$
>  <compound>
COc1cc(/C=C/c2cc(C(F)(F)F)[nH]c(=O)n2)ccc1OCc1ccccc1F

>  <system>
HS 578T breast

>  <GI50>
32 µM

$$$$
>  <compound>
CC1=CSC2=NC(c3ccc(Cl)c(Cl)c3)=CC(c3ccc(Cl)cc3)N12 (stereo unspecified)

>  <system>
HS 578T breast

>  <GI50>
> 100 µM

$$$$
>  <compound>
COc1cc(OC)c(/C=C/c2ccc3ccccc3[n+]2C)c(OC)c1

>  <system>
HS 578T breast

>  <GI50>
0.638 µM

$$$$
>  <compound>
c1ccc2c(c1)[I+]c1ccccc1-2

>  <system>
HS 578T breast

>  <GI50>
> 50 µM

$$$$
>  <compound>
COc1ccc2c(c1)sc1nc(-c3ccccc3)c(-c3ccsc3)n12

>  <system>
HS 578T breast

>  <GI50>
> 100 µM

$$$$

----------
tested on: IGROV1 ovarian; assay: NCI tumour cell line growth inhibition, 48 h
Recorded TGI values for a group of molecules are listed next.
metric: TGI

>  <smilesInput>
COc1cc(-c2cnn(C)c2)ccc1Nc1ncc2ccnc(N[C@@H](C)C(C)(C)C)c2n1

>  <metric>
TGI

>  <observedResult>
> 100 µM

$$$$
>  <smilesInput>
Cc1cc(/C=C2\SC(=Nc3ccccc3)N(C3CCCC3)C2=O)c(C)n1-c1ccc(Cl)cc1

>  <metric>
TGI

>  <observedResult>
> 100 µM

$$$$
>  <smilesInput>
COc1cc2nc(-c3ccc(C(F)(F)F)cc3)cc(OCCCN3CCOCC3)c2cc1OC

>  <metric>
TGI

>  <observedResult>
21.9 µM

$$$$
>  <smilesInput>
COc1cc([C@H](C)c2ccc3ccccc3c2)cc(OC)c1OC

>  <metric>
TGI

>  <observedResult>
> 100 µM

$$$$
>  <smilesInput>
N#CCCN(CCCN(C(=O)Nc1ccccc1)c1ccccc1)C(=O)Nc1ccccc1

>  <metric>
TGI

>  <observedResult>
> 100 µM

$$$$
>  <smilesInput>
CCOc1ccccc1NC(=O)/C=C1\NC(=O)CS1

>  <metric>
TGI

>  <observedResult>
> 100 µM

$$$$
>  <smilesInput>
CCN(CC)CCNc1c(OC)cc(C)c2sc3ccccc3c(=O)c12

>  <metric>
TGI

>  <observedResult>
20.7 µM

$$$$
>  <smilesInput>
O=C(Oc1ccc(O)c2c(=O)n3c(cc12)[nH]c1ccccc13)c1ccccc1

>  <metric>
TGI

>  <observedResult>
24.6 µM

$$$$
>  <smilesInput>
CCCCN(c1ccccc1)c1ncnc2c1cnn2C

>  <metric>
TGI

>  <observedResult>
> 100 µM

$$$$

----------
tested on: SNB-19 CNS; assay: NCI tumour cell line growth inhibition, 48 h

>  <molecule>
O=C(Nc1ccccc1C(F)(F)F)c1cccc(NC2=C(Cl)C(=O)N(Cc3ccccc3)C2=O)c1

>  <TGI>
> 100 µM

$$$$
>  <molecule>
CN(C(=O)c1ccc(Cl)s1)C(=S)N(C)C(=O)c1ccc(Cl)s1

>  <TGI>
> 10 µM

$$$$
>  <molecule>
CCCC(=O)c1c(NOC2OC(COC(C)=O)C(OC(C)=O)C(OC(C)=O)C2OC(C)=O)nc(OC)n(C)c1=O (stereo not given)

>  <TGI>
> 100 µM

$$$$
>  <molecule>
CCN(CC)CCNc1c(OC)cc(C)c2sc3ccccc3c(=O)c12

>  <TGI>
26.6 µM

$$$$
>  <molecule>
COc1cc(-c2cnn(C)c2)ccc1Nc1ncc2ccnc(N[C@@H](C)C(C)(C)C)c2n1

>  <TGI>
> 100 µM

$$$$

----------
test system: SK-MEL-2 melanoma; assay: NCI tumour cell line growth inhibition, 48 h

>  <molecule>
CCCC(=O)c1c(NOC2OC(COC(C)=O)C(OC(C)=O)C(OC(C)=O)C2OC(C)=O)nc(OC)n(C)c1=O (stereo not given)

>  <TGI>
> 100 µM

$$$$
>  <molecule>
COC1=CC23C=CC1[C@@H](c1ccccc1)C2=C(C)C(=O)N3C(=O)NC1CCCCC1 (stereo not given in full)

>  <TGI>
39.5 µM

$$$$
>  <molecule>
CCCCNc1nc(NC(C)(C)C)nc(NC(C)(C)C)n1

>  <TGI>
> 100 µM

$$$$
>  <molecule>
c1cnc2c(c1)-n1cccc1C1(CCSCC1)NN2

>  <TGI>
> 100 µM

$$$$
>  <molecule>
CCOc1ccccc1NC(=O)/C=C1\NC(=O)CS1

>  <TGI>
> 100 µM

$$$$

----------
test system: OVCAR-5 ovarian; test: NCI tumour cell line growth inhibition, 48 h
TGI for assorted compounds

>  <compound>
O=C1C(Br)=C[C@H]2C3C=CC(Br)(C3=O)[C@@H]12 (stereo partly specified)

>  <valueRelationSign>
=

>  <TGI (µM)>
29

$$$$
>  <compound>
COc1ccc(CNc2nc(NCc3ccc(OC)cc3)nc(N3CCOCC3)n2)cc1

>  <valueRelationSign>
=

>  <TGI (µM)>
41.6

$$$$
>  <compound>
CCN(CC)CCNc1c(OC)cc(C)c2sc3ccccc3c(=O)c12

>  <valueRelationSign>
=

>  <TGI (µM)>
13.4

$$$$
>  <compound>
c1cnc2c(c1)-n1cccc1C1(CCSCC1)NN2

>  <valueRelationSign>
>

>  <TGI (µM)>
100

$$$$
>  <compound>
N#CC(C#N)=C(N)/C(C#N)=C\c1ccnc2ccccc12

>  <valueRelationSign>
>

>  <TGI (µM)>
100

$$$$
>  <compound>
CCN(CC)CCCCC1CCN(CC(=O)N2CC(C)C(=O)Nc3ccccc32)CC1 (stereo unspecified)

>  <valueRelationSign>
>

>  <TGI (µM)>
100

$$$$
>  <compound>
O=c1[nH]nc(Cc2ccc(Cl)cc2)n1O

>  <valueRelationSign>
>

>  <TGI (µM)>
100

$$$$
>  <compound>
Cc1ccc(C(=O)c2oc3ccc4c(C)cc(=O)oc4c3c2C)cc1

>  <valueRelationSign>
>

>  <TGI (µM)>
100

$$$$
>  <compound>
O=C1c2cc(Br)ccc2-c2c1c1ccc([N+](=O)[O-])cc1c(=O)n2CCCCl

>  <valueRelationSign>
=

>  <TGI (µM)>
21.8

$$$$
>  <compound>
COc1cc(OC)c(/C=C/c2ccc3ccccc3[n+]2C)c(OC)c1

>  <valueRelationSign>
=

>  <TGI (µM)>
25.2

$$$$
>  <compound>
Nc1nc(-c2cccc([N+](=O)[O-])c2)c(Br)c(=O)[nH]1

>  <valueRelationSign>
>

>  <TGI (µM)>
100

$$$$

----------
tested on: SN12C renal; assay: NCI tumour cell line growth inhibition, 48 h
metric: TGI

>  <compound>
NC(=O)c1c[se]c(C2OC(CO)C(O)C2O)n1 (stereo not given)

>  <metric>
TGI

>  <observedResult>
> 100 µM

$$$$
>  <compound>
CCCCNc1nc(NC(C)(C)C)nc(NC(C)(C)C)n1

>  <metric>
TGI

>  <observedResult>
> 100 µM

$$$$
>  <compound>
COc1ccc(CNc2nc(NCc3ccc(OC)cc3)nc(N3CCOCC3)n2)cc1

>  <metric>
TGI

>  <observedResult>
> 100 µM

$$$$
>  <compound>
COc1cccc(-c2nc3sccn3c2-c2ccnc(NCCNC(=O)Nc3cccc(C(F)(F)F)c3)n2)c1

>  <metric>
TGI

>  <observedResult>
26.5 µM

$$$$
>  <compound>
CCN(CC)CCCCC1CCN(CC(=O)N2CC(C)C(=O)Nc3ccccc32)CC1 (stereo not given)

>  <metric>
TGI

>  <observedResult>
> 100 µM

$$$$
>  <compound>
CC1=CC[C@@H]2CC[C@]3(C)[C@H](CC[C@@H]4[C@@]5(C)CCCNC(C)(C)[C@@H]5CC[C@]43C)[C@H]2[C@@H]1C

>  <metric>
TGI

>  <observedResult>
3.44 µM

$$$$
>  <compound>
C=CCNC(=S)N1CC(C)C(=O)Nc2ccccc21 (stereo not given)

>  <metric>
TGI

>  <observedResult>
> 100 µM

$$$$
>  <compound>
N#Cc1c2c(c(N3CCOCC3)n3c1nc1ccccc13)CCCC2

>  <metric>
TGI

>  <observedResult>
45.8 µM

$$$$
>  <compound>
CSc1ncc2c(n1)-c1ccccc1OC2N1CCCC1 (stereo not given)

>  <metric>
TGI

>  <observedResult>
> 100 µM

$$$$
>  <compound>
CCOc1ccccc1NC(=O)/C=C1\NC(=O)CS1

>  <metric>
TGI

>  <observedResult>
> 100 µM

$$$$
